// data source = patent US10995099B2

tested on: A549; test: EC50 in A549; format: cell-based; details: A549; read-out: EC50 (μM) A549
measured_property: EC50

> print(dat)
                                   compound  measured.property    result
1  COc1ccccc1[C@H](Cn1c(=O)n(C2(C(=O)O)CCCC2)c(=O)c2c(C)c(Br)sc21)OC1CCOCC1               EC50    > 1 µM
2  COc1ccccc1[C@H](Cn1c(=O)n(C2(C(=O)O)CCC2)c(=O)c2c(C)c(Br)sc21)OC1CCOCC1               EC50  < 0.5 µM
3  COc1ccccc1[C@H](Cn1c(=O)n(C2(C(=O)O)CC2)c(=O)c2c(C)c(-c3ncco3)sc21)OC1CCOCC1               EC50  < 0.5 µM
4  COc1ccccc1[C@H](Cn1c(=O)n(C2(C(=O)O)CC2)c(=O)c2c(C)c(Cl)sc21)OC1CCOCC1               EC50    > 1 µM

Required: EC50, one value per compound below.
1. COc1ccccc1[C@H](Cn1c(=O)n(C(C)(C)C(=O)O)c(=O)c2c(C)c(-c3ncco3)sc21)OC1CCOCC1
2. COc1ccccc1C(Cn1c(=O)n(C2(C(=O)O)CCCC2)c(=O)c2c(C)c(-c3ncco3)sc21)OC1CCOCC1 (stereo not shown)
3. COc1ccccc1[C@H](Cn1c(=O)n(C2(C(=O)NS(C)(=O)=O)CC2)c(=O)c2c(C)c(-c3ncco3)sc21)OC1CCOCC1

A.
1: < 0.5 µM; 2: 0.5 to 1 µM; 3: < 0.5 µM

Required: EC50, one value per compound below.
1. COc1ccccc1[C@H](Cn1c(=O)n(C2(C(=O)O)CC2)c(=O)c2c(C)c(Br)sc21)OC1CCOCC1
2. COc1ccccc1C(Cn1c(=O)n(C2(C(=O)O)CCC2)c(=O)c2c(C)c(-c3ncco3)sc21)OC1CCOCC1 (stereo not shown)
3. COc1ccccc1[C@H](Cn1c(=O)n(C(C)(C)C(N)=O)c(=O)c2c(C)c(-c3ncco3)sc21)OC1CCOCC1

A.
1: 0.5 to 1 µM; 2: < 0.5 µM; 3: < 0.5 µM
